- assay-system: His-tagged recombinant human Gal-3 (hGal-3) (Homo sapiens (Human), UniProt P17931)
- Sequence (P17931 whole entry): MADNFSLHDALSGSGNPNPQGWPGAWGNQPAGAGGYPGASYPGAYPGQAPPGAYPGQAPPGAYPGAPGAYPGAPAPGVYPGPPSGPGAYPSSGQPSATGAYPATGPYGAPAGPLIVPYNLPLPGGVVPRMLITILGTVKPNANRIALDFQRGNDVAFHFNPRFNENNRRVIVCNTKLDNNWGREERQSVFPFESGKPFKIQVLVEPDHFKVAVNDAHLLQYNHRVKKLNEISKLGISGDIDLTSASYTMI
- procedure-summary: Gal-3 HTRF assay (His-tagged hGal-3 binding to B-ASF);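 further: compounds preincubated 30 min with hGal-3, then 1 h with B-ASF, detection via terbium anti-His antibody and streptavidin d2. Control with B-ASF counts as full signal, omitting B-ASF as background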
- run-parameters: HTRF, hGal-3 15 nM, B-ASF 15 nM; read-out: hGal-3 IC50
Response field label takes true (1) when IC50 is strictly below 100 nM and false (0) in all other cases.

Ask: Consider the compound OC[C@H]1O[C@@H](c2nncn2-c2ccc3ncccc3c2)[C@H](O)[C@@H](n2cc(-c3cc(F)c(F)c(F)c3)nn2)[C@H]1O [Example 107] . Is its IC50 strictly less than 100 nM?
Reply: true (1)

Ask: Threshold test, IC50 < 100 nM: OC[C@H]1O[C@@H](c2nncn2-c2ccc(N3CCNCC3)c(Cl)c2)[C@H](O)[C@@H](n2cc(-c3cc(F)c(F)c(F)c3)nn2)[C@H]1O [Example 141]
Reply: false (0)

Ask: Find out if reported IC50 for Cc1nc([C@@H]2O[C@H](CO)[C@H](O)[C@H](n3cc(-c4cc(F)c(F)c(F)c4)nn3)[C@H]2O)n(-c2cc(F)ccc2C(F)(F)F)n1 [Example 71] is less than 100 nM
Reply: true (1)

Ask: A record lists OC[C@H]1O[C@@H](c2nncn2-c2ccc(Cl)cc2Cl)[C@H](O)[C@@H](n2cc(-c3cc(F)c(F)c(F)c3)nn2)[C@H]1O [Example 83] . Is its IC50 below 100 nM?
Reply: false (0)

Ask: Determine whether this compound shows IC50 lower than 100 nM (ties excluded): OC[C@H]1O[C@@H](c2ncnn2-c2ccccc2F)[C@H](O)[C@@H](n2cc(-c3cc(F)c(F)c(F)c3)nn2)[C@H]1O [Example 40]
Reply: false (0)

Ask: Take the compound CSc1nnc([C@@H]2O[C@H](CO)[C@H](O)[C@H](n3cc(-c4cc(F)c(F)c(F)c4)nn3)[C@H]2O)n1-c1ccc(Cl)c(Cl)c1 [Example 278] and say whether its IC50 is less than 100 nM.
Reply: false (0)

Ask: Hello, is IC50 of the following compound strictly smaller than 100 nM? OC[C@H]1O[C@@H](c2ncnn2-c2cc(F)cc(F)c2)[C@H](O)[C@@H](n2cc(-c3cc(F)c(F)c(F)c3)nn2)[C@H]1O [Example 37]
Reply: false (0)

Ask: hey, is IC50 for O=C(NCCN1CCOCC1)c1nnc([C@@H]2O[C@H](CO)[C@H](O)[C@H](n3cc(-c4cccc(F)c4)nn3)[C@H]2O)o1 [Example 299] lower than 100 nM or not?
Reply: false (0)

Ask: Quick check: does Cc1nc2cc(-n3cnnc3[C@@H]3O[C@H](CO)[C@H](O)[C@H](n4cc(-c5cc(F)c(F)c(F)c5)nn4)[C@H]3O)ccc2s1 [Example 143] have IC50 under 100 nM?
Reply: false (0)

Ask: Here's an entry: Cc1nc2cc(C)c(-n3ncnc3[C@@H]3O[C@H](CO)[C@H](O)[C@H](n4cc(-c5cc(F)c(F)c(F)c5)nn4)[C@H]3O)cc2s1 [Example 49] . Is its IC50 below 100 nM?
Reply: true (1)

Ask: In the record for Cc1nc([C@@H]2O[C@H](CO)[C@H](O)[C@H](n3cc(-c4cc(F)c(F)c(F)c4)nn3)[C@H]2O)n(-c2cc(C(F)(F)F)ccc2Cl)n1 [Example 70] , is IC50 less than 100 nM?
Reply: true (1)

Ask: IC50 strictly < 100 nM for this compound? O=C(NCc1cccnc1)c1nnc([C@@H]2O[C@H](CO)[C@H](O)[C@H](n3cc(-c4cccc(F)c4)nn3)[C@H]2O)o1 [Example 298]
Reply: false (0)

Ask: Confirm or reject: IC50 of OC[C@H]1O[C@@H](c2nncn2-c2ccc(F)c(Cl)c2)[C@H](O)[C@@H](n2cc(-c3cc(F)c(F)c(F)c3)nn2)[C@H]1O [Example 156] lies strictly below 100 nM
Reply: true (1)

Ask: Quick check: does Cc1nc([C@@H]2O[C@H](CO)[C@H](O)[C@H](n3cc(-c4cc(F)c(F)c(F)c4)nn3)[C@H]2O)n(-c2cncc(Cl)c2)n1 [Example 65] have IC50 under 100 nM?
Reply: false (0)

Ask: Determine if O=S1(=O)Cc2ccc(-n3cnnc3[C@@H]3O[C@H](CO)[C@H](O)[C@H](n4cc(-c5cc(F)c(F)c(F)c5)nn4)[C@H]3O)cc2C1 [Example 99] shows IC50 strictly lower than 100 nM.
Reply: false (0)

Ask: Is IC50 of CCc1ccc(Cl)cc1-n1nc(C)nc1[C@@H]1O[C@H](CO)[C@H](O)[C@H](n2cc(-c3cc(F)c(F)c(F)c3)nn2)[C@H]1O [Example 72] strictly below 100 nM?
Reply: true (1)

Ask: Decide: IC50 of CCN(CC)CCNC(=O)c1nnc([C@@H]2O[C@H](CO)[C@H](O)[C@H](n3cc(-c4cccc(F)c4)nn3)[C@H]2O)o1 [Example 297] strictly below 100 nM?
Reply: false (0)

Ask: Quick check: IC50 of COc1ccc(-n2cnnc2[C@@H]2O[C@H](CO)[C@H](O)[C@H](n3cc(-c4cc(F)c(F)c(F)c4)nn3)[C@H]2O)cc1Cl [Example 145] under 100 nM?
Reply: false (0)

Ask: Given Cc1nc2ccc(-n3ncnc3[C@@H]3O[C@H](CO)[C@H](O)[C@H](n4cc(-c5ccc(C6CC6)c(F)c5)nn4)[C@H]3O)cc2s1 [Example 201] , is recorded IC50 strictly lower than 100 nM?
Reply: false (0)

Ask: A record lists OC[C@H]1O[C@@H](c2nncn2-c2ccccc2Cl)[C@H](O)[C@@H](n2cc(-c3cc(F)c(F)c(F)c3)nn2)[C@H]1O [Example 89] . Is its IC50 below 100 nM?
Reply: false (0)

Ask: Bench note: check whether Cc1nc2ccc(-n3ncnc3[C@@H]3O[C@H](CO)[C@H](O)[C@H](n4cc(-c5cc(F)c(N6CC(O)C6)c(F)c5)nn4)[C@H]3O)cc2s1 [Example 242] shows IC50 below 100 nM
Reply: true (1)

Ask: Determine whether this compound shows IC50 lower than 100 nM (ties excluded): O=C(NCc1ccncc1)c1nnc([C@@H]2O[C@H](CO)[C@H](O)[C@H](n3cc(-c4cccc(F)c4)nn3)[C@H]2O)o1 [Example 296]
Reply: false (0)

Ask: Is IC50 of OC[C@H]1O[C@@H](n2nncc2-c2ccc3cn[nH]c3c2)[C@H](O)[C@@H](n2cc(-c3cc(F)c(F)c(F)c3)nn2)[C@H]1O [Example 6] strictly below 100 nM?
Reply: false (0)

Ask: Strictly below 100 nM in IC50? O=C(O)c1nnn([C@@H]2O[C@H](CO)[C@H](O)[C@H](n3cc(-c4cc(F)c(F)c(F)c4)nn3)[C@H]2O)c1-c1ccc(Cl)c(Cl)c1 [Example 11]
Reply: false (0)
